Give self-aminoacylation for every item shown.
Tested on: biotinyl-Phe-oxazolone
experimental_details: self-aminoacylation, catalytic enhancement (BFO) (fold over background); higher = more active; k-Seq, kA / k0A0; sequences stand for … in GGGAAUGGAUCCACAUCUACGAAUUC…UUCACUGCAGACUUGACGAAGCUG
Fewer inactive variants are shown than the library holds.
Answer with a number only.

**Query** Entry AAGUUUGCUAAUAAUCGGAAG [Fam3.1 aminoacylation ribozyme variant] , system biotinyl-Phe-oxazolone: what self-aminoacylation was measured?
**Result** 0.788

**Query** Report self-aminoacylation for AAAUUGGCUAAUAGUCGCAAG [Fam3.1 aminoacylation ribozyme variant] tested on biotinyl-Phe-oxazolone.
**Result** 2.72

**Query** API: value(readout= self-aminoacylation, system= biotinyl-Phe-oxazolone, query= CUACACUUCAUGCAAUCGGUC [Fam1B.1 aminoacylation ribozyme variant] )
**Result** 0.689

**Query** Test system biotinyl-Phe-oxazolone; read-out self-aminoacylation; what value for CUACACUUCAAGCAAUCAGUC [Fam1B.1 aminoacylation ribozyme variant] ?
**Result** 21

====

I'd be grateful if you could share measured self-aminoacylation for these entries.
Test system: biotinyl-Ile-oxazolone
experimental_details: self-aminoacylation, catalytic enhancement (BIO) (fold over background); higher = more active; k-Seq, kA / k0A0; sequences stand for … in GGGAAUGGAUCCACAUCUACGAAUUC…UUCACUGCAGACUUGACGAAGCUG
Variants at the floor of the assay were thinned out.
No unit in the answer, only the number.

**Query** self-aminoacylation for AUUGCCCGGGUCAUCGAGUGA [Fam2.1 aminoacylation ribozyme variant] ?
**Result** 3.01

**Query** Endpoint output: self-aminoacylation of AAGGUUGCUAAUAGUCACAAG [Fam3.1 aminoacylation ribozyme variant] . Value?
**Result** 1.71

**Query** Recorded self-aminoacylation for AUUCACCUGGGUCAUCGGGCG [Fam2.2 aminoacylation ribozyme variant] , please?
**Result** 3.58

**Query** Endpoint output: self-aminoacylation of AUUACCCUGGUCAUACAGUGA [Fam2.1 aminoacylation ribozyme variant] . Value?
**Result** 2.91

**Query** Return reported self-aminoacylation; argument: CCACACUUCUAGCAAUCUGUC [Fam1B.1 aminoacylation ribozyme variant]
**Result** 0.424

====

Test system: biotinyl-Ile-oxazolone
experimental_details: self-aminoacylation, catalytic enhancement (BIO) (fold over background); higher = more active; k-Seq, kA / k0A0; sequences stand for … in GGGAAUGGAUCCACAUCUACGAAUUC…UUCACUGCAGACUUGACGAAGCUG
Variants at the floor of the assay were thinned out.
Provide the reported self-aminoacylation of each item.
Please give only the number in your answer, with no unit.

**Query** Which self-aminoacylation is listed for CCACCUUUCAAGCAAUCGGUC [Fam1B.1 aminoacylation ribozyme variant] ?
**Result** 1.44

**Query** // query self-aminoacylation value for entry AUUACCCUGGUGAUAGAGUGA [Fam2.1 aminoacylation ribozyme variant]
**Result** 3.75

**Query** What value of self-aminoacylation has been reported for the following sequence? CCGCACUUCAAGCGAUCGGUC [Fam1B.1 aminoacylation ribozyme variant]
**Result** 1.34

**Query** Which self-aminoacylation value is on record for CUACUUCAAACCAUAGGUCUG [Fam1A.1 aminoacylation ribozyme variant] ?
**Result** 0.807

**Query** Value lookup for self-aminoacylation; key = AUUACCCUGAUCAUCGAGUGG [Fam2.1 aminoacylation ribozyme variant]
**Result** 1.52

**Query** Endpoint output: self-aminoacylation of CUACUUCAAAGAAUCGGUCUA [Fam1A.1 aminoacylation ribozyme variant] . Value?
**Result** 0.748

**Query** Tell me the measured self-aminoacylation of AAGUUUGCCAAUAGUCACAAG [Fam3.1 aminoacylation ribozyme variant] , please.
**Result** 1.55

**Query** Please give the measured self-aminoacylation for this sequence: AUUACCCUGGUCAGCGAGUGA [Fam2.1 aminoacylation ribozyme variant]
**Result** 2.92

**Query** Need self-aminoacylation of AAGGUUGCUAACAGUCGCAAG [Fam3.1 aminoacylation ribozyme variant] , thanks.
**Result** 1.33

**Query** Which value of self-aminoacylation has been reported for AAGCUUGCGAAUAGUCGCAAG [Fam3.1 aminoacylation ribozyme variant] in the records?
**Result** 2.39

**Query** Item under review: AUUCACCUCGGUCUUCGGGUG [Fam2.2 aminoacylation ribozyme variant] . Reported self-aminoacylation?
**Result** 3.77

**Query** Need self-aminoacylation, item AUUACCCUGGCCAUCGAGUCA [Fam2.1 aminoacylation ribozyme variant]
**Result** 0.78

**Query** Recorded self-aminoacylation for CUACUUCAAACAAUCGGUCAA [Fam1A.1 aminoacylation ribozyme variant] , please?
**Result** 0.846

**Query** Given the entry AAGUUUGCUAAUAGUUGGAAG [Fam3.1 aminoacylation ribozyme variant] , report its measured self-aminoacylation.
**Result** 1.29

**Query** Value lookup for self-aminoacylation; key = AAGUUUCCUAAUAGUCGCAAC [Fam3.1 aminoacylation ribozyme variant]
**Result** 1.59

**Query** // query self-aminoacylation value for entry AAGUUUGUUAAUAGUCUCAAG [Fam3.1 aminoacylation ribozyme variant]
**Result** 1.22

**Query** Recorded self-aminoacylation for CCACACUUCAAGCUAUCGGUG [Fam1B.1 aminoacylation ribozyme variant] , please?
**Result** 3.88

**Query** Recorded self-aminoacylation for CUAAUUCAAACAAUUGGUCUG [Fam1A.1 aminoacylation ribozyme variant] , please?
**Result** 0.839
